- System: S. cerevisiae Burl-1 ts mutant growth, BacTiter-Glo, 38.5C 24 h
- protocol notes: restored growth of temperature-sensitive Burl-1 yeast – whole organism, S. cerevisiae, Burl-1 ts mutant, luminescence, counter-screen for SUMOylation pathway inhibitor project, dose response (AID 463199)
Activity calls are given as the source filed them.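 Rule for the calls: active = AC50, the dose giving half-maximal effect, exceeds a fixed cutoff for a compound that rescues yeast growth under heat; inactive = the rest, inconclusive results apart.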
Measured AC50 of individual entries

Sample answers from the record:
Which value of AC50 has been reported for Cc1nc2c3ccccc3nc(NNC(=O)CCC(=O)N3CCCC(C)C3)n2n1 (stereo unspecified) in the records?
> 42 µM (inactive)

I am curious: what AC50 value has been reported for O=C(Nc1ccc(OC(F)(F)F)cc1)c1ccc2ccccc2n1 ?
> 42 µM (inactive)

Item Cc1cc(C(F)(F)F)nc(SCC(=O)Nc2cc(C)on2)n1 has what recorded AC50?
> 42 µM (inactive)

Returns the measured AC50 for the input compound. Input: O=S(=O)(Nc1ccc(-c2nc3cccnc3s2)cc1)c1cc(F)ccc1F
> 42 µM (inactive)

Any idea what AC50 was measured for CN(c1cccnc1)c1ncnc2[nH]ncc12 ?
> 42 µM (inactive)

In the following, a different compound is considered.
Could you tell me which AC50 is on file for Cc1ccc(S(=O)(=O)N2CCCC2C(=O)NCCc2ccccc2)cc1 (stereo unspecified) ?
> 42 µM (inactive)

----------
- Tested on: S. cerevisiae Burl-1 ts mutant growth, BacTiter-Glo, 38.5C 24 h
- protocol notes: restored growth of temperature-sensitive Burl-1 yeast – whole organism, S. cerevisiae, Burl-1 ts mutant, luminescence, counter-screen for SUMOylation pathway inhibitor project, dose response (AID 463199)
Activity calls are given as the source filed them.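 Rule for the calls: active = AC50, the dose giving half-maximal effect, exceeds a fixed cutoff for a compound that rescues yeast growth under heat; inactive = the rest, inconclusive results apart.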
Each entry below lists one item and its recorded AC50 value.

Consider the worked cases shown below.
Quick one: AC50 for COC(=O)C1(Cc2cc(-c3ccccc3)no2)CCN(C(=O)OC(C)(C)C)CC1 ?
> 42 µM (inactive)

What value of measured AC50 is listed for N#Cc1ccc(C23CC4(C2)[C@H](CN(Cc2ccc(C(F)(F)F)cc2)[C@@H]4c2ccccc2)C3c2ccc(C(F)(F)F)cc2)cc1 (stereo partly specified) ?
> 42 µM (inactive)

Data request, read-out AC50, for Cc1ccc2c(c1)N(CC(=O)NCCCN1CCN(C)CC1)C(=O)CO2
> 42 µM (inactive)

GET /values?readout=AC50&item= COc1cc(/C=N/n2c(C3CCCCC3)n[nH]c2=S)cc(OC)c1O
> 42 µM (inactive)

// query AC50 value for entry COCCCn1c2nc3ccccc3nc2c2c(=O)n(Cc3ccc(Cl)cc3)cnc21
> 42 µM (inactive)

We now examine a further compound.
// AC50 lookup, key: O=S1(=O)CC(N2CCCCC2)C(N2CCCCC2)C1 (stereo unspecified)
> 42 µM (inactive)

----------
- Test system: S. cerevisiae Burl-1 ts mutant growth, BacTiter-Glo, 38.5C 24 h
- protocol notes: restored growth of temperature-sensitive Burl-1 yeast – whole organism, S. cerevisiae, Burl-1 ts mutant, luminescence, counter-screen for SUMOylation pathway inhibitor project, dose response (AID 463199)
Active and inactive are the calls of the source.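 Rule for the calls: active = AC50, the dose giving half-maximal effect, exceeds a fixed cutoff for a compound that rescues yeast growth under heat; inactive = the rest, inconclusive results apart.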
The following molecules are listed with their measured AC50 values.

Sample records with AC50:
Request the reported AC50 associated with CC(C)C(NC(=S)Nc1ccccc1)C(=O)O (stereo not given)
> 42 µM (inactive)

For the molecule shown here, CN(C)C(=O)CN1C(=O)c2cccc3cccc1c23 , give the reported AC50.
> 42 µM (inactive)

May I ask what AC50 has been recorded for c1ccc2c(c1)OCCOCCOc1ccccc1OCCOCCO2 ?
> 42 µM (inactive)

Recorded AC50 for CC1(C)c2[nH]c3ccccc3c2C[C@H]2C(=O)N(Cc3cccc(F)c3)C(=O)N21 , please?
> 42 µM (inactive)

For CCC(C)NCCOc1ccccc1C (stereo not given) , what is its reported AC50?
> 42 µM (inactive)

# input molecule: COc1ccc(OCC(O)CN2C(=O)NC(C)(C)C2=O)cc1 (stereo not given) ; wanted: its AC50
> 42 µM (inactive)

Field request: AC50 | item: O=C1CC(N(CCc2ccccc2)C(=S)Nc2ccccc2)C(=O)N1c1ccc(F)cc1 (stereo not given)
> 42 µM (inactive)

Need AC50 of COc1cccc(OC)c1OCC(O)CN1CCN(c2ccccc2)CC1 (stereo not given) , thanks.
> 42 µM (inactive)

Look at this molecule and give its reported AC50. Cc1ccc(-c2ccc(/C=N/n3cnnc3)o2)cc1
> 42 µM (inactive)

Any idea what its AC50 is? The molecule is CC1CCN(Cc2nc3c(c(=O)n(C)c(=O)n3C)n2CCc2ccccc2)CC1
> 42 µM (inactive)

Others:
// lookup AC50 for CNC(=O)c1ccccc1NC(=O)c1c(O)c2c([nH]c1=O)CCCC2
> 42 µM (inactive)

Can you share its AC50? I mean this molecule: Oc1ccc(Br)cc1/C=N/n1c(COc2ccccc2)n[nH]c1=S
> 42 µM (inactive)

What value of AC50 has been recorded for this entry: CCCOc1ccccc1C1NC(=O)NC(C)=C1C(=O)OCc1ccccc1 (stereo not given)
> 42 µM (inactive)

----------
- Tested on: S. cerevisiae Burl-1 ts mutant growth, BacTiter-Glo, 38.5C 24 h
- protocol notes: restored growth of temperature-sensitive Burl-1 yeast – whole organism, S. cerevisiae, Burl-1 ts mutant, luminescence, counter-screen for SUMOylation pathway inhibitor project, dose response (AID 463199)
Calls of active or inactive are those of the source.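 How the source made its calls: active means AC50, the dose giving half-maximal effect, exceeds a fixed cutoff for a compound that rescues yeast growth under heat; inactive means the rest, inconclusive results apart.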
measure: AC50

Use the examples below as a reference point.
Test system S. cerevisiae Burl-1 ts mutant growth, BacTiter-Glo, 38.5C 24 h; read-out AC50; what value for CC(C)Oc1ccc(C2(C#N)CC[N+](C)(C)CC2)cc1 ?
> 42 µM (inactive)

Request: AC50, test system S. cerevisiae Burl-1 ts mutant growth, BacTiter-Glo, 38.5C 24 h, entry Oc1c(Cl)cc(Cl)c(Cl)c1Cc1c(O)c(Cl)cc(Cl)c1Cl
> 42 µM (inactive)

# query: AC50 | item Cc1n[nH]c(=O)c2c(NC(=O)COC(=O)Cc3ccc(Cl)cc3Cl)oc(C)c12 | system: S. cerevisiae Burl-1 ts mutant growth, BacTiter-Glo, 38.5C 24 h
> 21 µM (inactive)

New cases:
Look up AC50 with S. cerevisiae Burl-1 ts mutant growth, BacTiter-Glo, 38.5C 24 h for this molecule: Cn1cc(C(=O)N2CCCC(Nc3ccc(F)cc3)C2)c2ccccc21 (stereo unspecified)
> 42 µM (inactive)

Please tell me: AC50 of COc1ccccc1CNC(=O)C1CCC(=O)N1C(C)C (stereo unspecified) , system S. cerevisiae Burl-1 ts mutant growth, BacTiter-Glo, 38.5C 24 h?
> 42 µM (inactive)

# value lookup — system S. cerevisiae Burl-1 ts mutant growth, BacTiter-Glo, 38.5C 24 h, readout AC50, item O=C(CCNS(=O)(=O)c1cccc2nsnc12)NCCC1=CCCCC1
> 42 µM (inactive)

----------
- Test system: S. cerevisiae Burl-1 ts mutant growth, BacTiter-Glo, 38.5C 24 h
- protocol notes: restored growth of temperature-sensitive Burl-1 yeast – whole organism, S. cerevisiae, Burl-1 ts mutant, luminescence, counter-screen for SUMOylation pathway inhibitor project, dose response (AID 463199)
Active and inactive are the calls of the source.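 How the source made its calls: active means AC50, the dose giving half-maximal effect, exceeds a fixed cutoff for a compound that rescues yeast growth under heat; inactive means the rest, inconclusive results apart.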
Your reply should match one of these outcome classes. true (active), false (inactive)

# count of solved cases: 3
Tell me the assay call for O=C(Cn1nc(C(F)(F)F)c2c1CCCC2)N1CCOCC1 please.
false

Which outcome did this test record for the compound O=C(Oc1ccccc1N1C(=O)C2CC=CCC2C1=O)c1ccc(Br)cc1 (stereo unspecified) ?
false

Please indicate how the test categorized CCOc1ccc(C(=O)Nc2ccc(CN3CCOCC3)cc2)cc1Br .
true

New cases:
For this compound, state the assay outcome: C/C(O)=C(\N=Nc1cc(C)ccc1O)C(N)=O
false

Hello, I am checking results. What call was entered for OC1(c2ccc(F)cc2)CC2CCC(C1)N2Cc1nnnn1C1CCCCC1 (stereo unspecified) ?
false

Recorded test outcome, item CCCNCc1cc(OCC)c(OCC(N)=O)cc1Br
false

Which result was noted for this compound in the test: COc1ccccc1CNC(=O)CCC(=O)Nc1nnc(C(C)C)s1
false

For this compound, state the assay outcome: O=C(Nc1ncccn1)c1ccc(C(F)(F)F)cc1
false

Status in this test for NC(=O)CN1CCOCCN(CC(N)=O)CCOCC1 ?
false

Each compound tested received a call. Report the one for Cc1ccc(S(=O)(=O)Oc2ccc(/C=C3\N=C(c4cccc(C)c4)OC3=O)cc2)cc1 .
false

Could you kindly confirm the outcome this assay logged for CCCCc1ccc(S(=O)(=O)NNC(=S)NCc2ccco2)cc1 ?
false

----------
- Tested on: S. cerevisiae Burl-1 ts mutant growth, BacTiter-Glo, 38.5C 24 h
- protocol notes: restored growth of temperature-sensitive Burl-1 yeast – whole organism, S. cerevisiae, Burl-1 ts mutant, luminescence, counter-screen for SUMOylation pathway inhibitor project, dose response (AID 463199)
Calls of active or inactive are those of the source.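 Rule for the calls: active = AC50, the dose giving half-maximal effect, exceeds a fixed cutoff for a compound that rescues yeast growth under heat; inactive = the rest, inconclusive results apart.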
Result category, one only: True = active, False = inactive

What classification did Cc1ccc(NC(=S)N2CCN(Cc3ccc4c(c3)OCO4)CC2)c(C)c1 end up with in this test?
False

For this compound, state the assay outcome: COCCCNCC(O)COc1cccc2[nH]c(C)cc12 (centres undefined)
False

New cases:
Write down the call the test reported for this compound. Item: N#CC1=C(N)Nc2ncnn2C1c1ccc([N+](=O)[O-])cc1 (centres undefined)
False

Per the assay record, what outcome was assigned to COCCCn1c(=O)c2ccccc2n(Cc2ccccc2C)c1=O ?
False

What did the test return for COc1ccc(/C=N\Nc2ccc([N+](=O)[O-])cc2)c(C(=O)O)c1OC ?
False

Lab log entry: CN(C)C(=O)c1coc2nc3ccccc3nc12 — outcome as called in the assay?
False

In this assay, the call recorded for O=C(/C=C/NNC(=O)c1ccc(Br)cc1)c1ccccc1 was what?
False

Call for entry N#C/C(=C\c1cn(-c2ccccc2)nc1-c1cccnc1)c1nnc2n1CCCCC2 :
False

For this compound, state the assay outcome: COc1ccc(-c2[nH]ncc2CNCCn2cccn2)c(F)c1
False

Dear colleague, could you share the recorded outcome for O=C(NNC(=O)c1ccc(-n2cncn2)c([N+](=O)[O-])c1)c1ccc(Cl)cc1 when you have a moment?
False

Could you kindly confirm the outcome this assay logged for CCNCc1nc2cc(Cl)ccc2c(=O)[nH]1 ?
False

Outcome? NC(=O)C1CCN(C2CC(=O)N(c3ccc(F)c(Cl)c3)C2=O)CC1 (centres undefined)
False

Test call for this compound, please: O=C(NCCc1cnccn1)C1CCC(=O)N(Cc2ccc(Cl)cc2)C1 (centres undefined)
False

Could you kindly confirm the outcome this assay logged for CN(C)CC/C=C1\c2ccccc2Sc2ccc(Cl)cc21 ?
False

For CNC(=O)COC(=O)c1cc(-c2ccco2)nc2ccccc12 , which call appears in the assay record?
False

Test call, this compound: O=C(COc1cccc2cccnc12)N1CCc2ccccc21
False

How was COC(=O)c1ccc(Cn2cc(Cl)cn2)cc1 classified in this test?
False

What was the test verdict on CC1(C)CC(=O)c2cnc(NC(=O)CSc3nc4ccccc4o3)nc2C1 ?
False

Would you mind telling me which call this test gave CCn1c(CSCc2ccc(F)cc2)nnc1SCC(=O)NCc1ccccc1 ?
False

Please let me know the test result on file for Cc1c(NC(=O)c2ccc(N(C)S(C)(=O)=O)cc2)c(=O)n(-c2ccccc2)n1C .
False

Give the logged outcome of this assay for the following compound: CC1CCN(CCCOc2ccc(OCc3ccccc3)cc2)CC1
False

The measured values listed here are drawn from PubChem BioAssay AID463199.
